molecular target: EphrinB2-EphB2 (Homo sapiens, UniProt P29323); construct: soluble human EphB1-His, EphB2-His, and EphB4-His ectodomains; commercially available human EphrinB1-Fc (EB1), EphrinB2-Fc (EB2), and EphrinB3-Fc (EB3) ectodomain proteins; purchased; assay: Octet 80 sec association/500 sec dissociation, immobilized human EphrinB2-Fc binding to soluble human EphB2-His; conditions: EphB2; Dissociation (135″); read-out: Relative IC50
Below, each entry is listed alongside its reported IC50.

In [3]: df
Out[3]:
                                smiles_code  value_observed
0  Oc1c(Br)cc(CN2CCN(c3ccc(Br)cc3)CC2)c2cccnc12          230 nM

Okay, now this molecule:
Input line: # lookup: IC50 of Oc1c(I)cc(CN2CCOCC2)c2cccnc12
Output line: 340 nM

----------
biological target: EphrinB2-EphB1 (Homo sapiens); construct: soluble human EphB1-His, EphB2-His, and EphB4-His ectodomains; commercially available human EphrinB1-Fc (EB1), EphrinB2-Fc (EB2), and EphrinB3-Fc (EB3) ectodomain proteins; purchased; test: Octet 80 sec association/500 sec dissociation, immobilized human EphrinB2-Fc binding to soluble human EphB1-His; settings: EphB1; 25 nM EphB1; 3.2 μM compound; A20-I as max control; 0* = less than 0, no inhibition; read-out: % Inhibition: Association + Dissociation (160 sec)
Sequence (P54762 18-540 limits assumed): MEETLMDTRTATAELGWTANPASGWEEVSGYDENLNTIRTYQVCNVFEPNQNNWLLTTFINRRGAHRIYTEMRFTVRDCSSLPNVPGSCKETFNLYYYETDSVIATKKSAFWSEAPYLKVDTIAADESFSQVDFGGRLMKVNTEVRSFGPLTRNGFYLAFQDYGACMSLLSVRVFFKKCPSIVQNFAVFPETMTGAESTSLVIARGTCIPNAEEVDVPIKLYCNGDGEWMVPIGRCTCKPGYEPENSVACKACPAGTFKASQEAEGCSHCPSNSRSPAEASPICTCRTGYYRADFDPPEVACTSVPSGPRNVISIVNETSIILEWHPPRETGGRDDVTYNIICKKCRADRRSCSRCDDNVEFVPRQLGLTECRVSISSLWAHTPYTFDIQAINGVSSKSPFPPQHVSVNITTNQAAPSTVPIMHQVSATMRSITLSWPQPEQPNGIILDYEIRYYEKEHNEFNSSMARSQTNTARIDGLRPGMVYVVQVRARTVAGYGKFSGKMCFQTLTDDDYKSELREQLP
Reported inhibition at 3.2 µM maps to class as: class 0 (below 30%), class 1 (30% to below 50%), class 2 (50% or more)

These recorded examples may help you get a feel for the data.
>>> df
                                smiles_code  label_class
0  O=[N+]([O-])c1cc(CN2CCS(=O)(=O)CC2)c2cccnc2c1O      class 1
1  Oc1ccc(CN2CCN(c3ccc(Br)cn3)CC2)c2cccnc12      class 2
2    O=S1(=O)CCN(Cc2cc(Br)c(O)c3ncccc23)CC1      class 1
3            Oc1c(Cl)cc(CN2CCOCC2)c2cccnc12      class 1
4  COc1ccc2[nH]cc(C(=O)N3CCN(c4ccccc4OC)CC3)c2c1      class 0
5  Oc1ccc(CN2CCN(Cc3ccc(C(F)(F)F)cc3)CC2)c2cccnc12      class 0
6     Oc1ccc(CN2CCN(Cc3ccccc3)CC2)c2cccnc12      class 0
7  COc1ccccc1N1CCN(Cc2cc(Br)c(O)c3ncccc23)CC1      class 2

Input line: # bin label for Oc1c(Br)cc(CN2CCOCC2)c2cccnc12
Output line: class 1

Input line: # bin label for COc1ccccc1N1CCN(Cc2cc(I)c(O)c3ncccc23)CC1
Output line: class 2

Input line: # bin label for COc1ccc2[nH]cc(C(=O)N3CCOCC3)c2c1
Output line: class 0

Input line: # bin label for O=C(Cc1ccccc1)Nc1ccc(N2CCN(Cc3ccc(O)c4ncccc34)CC2)cc1
Output line: class 2

Input line: # bin label for Oc1c(I)cc(CN2CCOCC2)c2cccnc12
Output line: class 1

Input line: # bin label for Oc1ccc(CN2CCN(Cc3ccc(Br)cc3)CC2)c2cccnc12
Output line: class 1

----------
molecular target: EphrinB2-EphB2 (Homo sapiens, UniProt P29323); construct: soluble human EphB1-His, EphB2-His, and EphB4-His ectodomains; commercially available human EphrinB1-Fc (EB1), EphrinB2-Fc (EB2), and EphrinB3-Fc (EB3) ectodomain proteins; purchased; experiment: Octet tetramerization inhibition, immobilized human EphrinB2 binding to 50 nM soluble human EphB2; settings: Relative Dissociation IC50 (450 sec), Table A, EphrinB2-EphB2
pIC50: −log10 of the molar value.
pIC50 vs 6: at or above is 1 (yes), below is 0 (no).

These recorded examples may help you get a feel for the data.
>>> df
                                   molecule  label_class
0    COc1ccccc1N1CCN(Cc2ccc(O)c3ncccc23)CC1       0 (no)
1  Oc1ccc(CN2CCN(Cc3ccc(C(F)(F)F)cc3)CC2)c2cccnc12       0 (no)
2  O=[N+]([O-])c1cc(CN2CCOCC2)c2cccnc2c1O [Compound 9]       0 (no)
3  Oc1c(Br)cc(CN2CCN(Cc3ccc(Br)cc3)CC2)c2cccnc12 [Compound 45]      1 (yes)
4   Nc1ccc(N2CCN(Cc3ccc(O)c4ncccc34)CC2)cc1       0 (no)
5            Oc1c(Br)cc(CN2CCOCC2)c2cccnc12      1 (yes)
6  O=C(Cc1ccccc1)Nc1ccc(N2CCN(Cc3cc(Br)c(O)c4ncccc34)CC2)cc1       0 (no)
7         COc1ccc2[nH]cc(C(=O)N3CCOCC3)c2c1       0 (no)
8        OCc1ccc2c(CN3CCOCC3)cc(Br)c(O)c2n1       0 (no)
9  Oc1c(I)cc(CN2CCN(Cc3ccc(Br)cc3)CC2)c2cccnc12      1 (yes)

Could you now consider this next molecule?
Input line: Identify whether the reported pIC50 of the following molecule is 6 or greater: O=[N+]([O-])c1cc(CN2CCOCC2)c2cccnc2c1O [Compound 10]
Output line: 0 (no)

----------
molecular target: EphrinB2-EphB4 (Homo sapiens); construct: soluble human EphB1-His, EphB2-His, and EphB4-His ectodomains; commercially available human EphrinB1-Fc (EB1), EphrinB2-Fc (EB2), and EphrinB3-Fc (EB3) ectodomain proteins; purchased; assay: Octet 80 sec association/500 sec dissociation, immobilized human EphrinB2-Fc binding to soluble human EphB4-His; conditions: at 3.2 μM and 80 seconds; immobilized human EphrinB2; 25 nM soluble human EphB4
Sequence (P54760 16-539 limits assumed): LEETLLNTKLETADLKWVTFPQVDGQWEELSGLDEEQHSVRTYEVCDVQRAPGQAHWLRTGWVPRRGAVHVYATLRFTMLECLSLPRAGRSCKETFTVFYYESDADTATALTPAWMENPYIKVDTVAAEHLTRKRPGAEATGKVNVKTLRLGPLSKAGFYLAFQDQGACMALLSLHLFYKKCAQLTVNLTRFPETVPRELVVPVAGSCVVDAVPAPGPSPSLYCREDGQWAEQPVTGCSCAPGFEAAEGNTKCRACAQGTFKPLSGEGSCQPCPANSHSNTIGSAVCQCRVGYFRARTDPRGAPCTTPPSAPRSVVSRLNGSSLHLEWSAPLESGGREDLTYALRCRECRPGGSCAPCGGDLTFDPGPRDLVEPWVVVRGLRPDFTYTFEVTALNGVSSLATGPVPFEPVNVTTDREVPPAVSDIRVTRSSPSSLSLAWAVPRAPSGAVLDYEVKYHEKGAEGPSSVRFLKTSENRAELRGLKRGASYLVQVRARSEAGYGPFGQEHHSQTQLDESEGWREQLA
Below, each entry is listed alongside its reported EphB4 Inhibition Percent, Inhibition of Association ONLY.
Quick note: give the figure in %, leave out the unit.

>>> print(df.to_string())
                                   molecule            experimental_target  value_observed
0  COc1ccc(N2CCN(Cc3cc(I)c(O)c4ncccc34)CC2)cc1  EphrinB2-EphB4 (Homo sapiens)            21.0

Input line: # lookup: EphB4 Inhibition Percent, Inhibition of Association ONLY of OCc1ccc2c(CN3CCOCC3)ccc(O)c2n1
Output line: 11.0

Input line: # lookup: EphB4 Inhibition Percent, Inhibition of Association ONLY of Oc1ccc(CN2CCN(c3ccc(I)cc3)CC2)c2cccnc12
Output line: 33.8

Input line: # lookup: EphB4 Inhibition Percent, Inhibition of Association ONLY of Oc1c(Br)cc(CN2CCOCC2)c2cccnc12
Output line: 20.0

Input line: # lookup: EphB4 Inhibition Percent, Inhibition of Association ONLY of Oc1c(Br)cc(CN2CCN(Cc3ccc(Br)cc3)CC2)c2cccnc12
Output line: 4.9

----------
molecular target: EphA3-EphrinA5 (Homo sapiens); test: Octet, immobilized human EphA3 binding to human EphrinA5; conditions: Human EphA3-EphrinA5; immobilized human EphA3; 50 nM soluble human EphrinA5; association; absolute; read-out: Absolute Association IC50
Sequence (P29320 21-541 limits assumed): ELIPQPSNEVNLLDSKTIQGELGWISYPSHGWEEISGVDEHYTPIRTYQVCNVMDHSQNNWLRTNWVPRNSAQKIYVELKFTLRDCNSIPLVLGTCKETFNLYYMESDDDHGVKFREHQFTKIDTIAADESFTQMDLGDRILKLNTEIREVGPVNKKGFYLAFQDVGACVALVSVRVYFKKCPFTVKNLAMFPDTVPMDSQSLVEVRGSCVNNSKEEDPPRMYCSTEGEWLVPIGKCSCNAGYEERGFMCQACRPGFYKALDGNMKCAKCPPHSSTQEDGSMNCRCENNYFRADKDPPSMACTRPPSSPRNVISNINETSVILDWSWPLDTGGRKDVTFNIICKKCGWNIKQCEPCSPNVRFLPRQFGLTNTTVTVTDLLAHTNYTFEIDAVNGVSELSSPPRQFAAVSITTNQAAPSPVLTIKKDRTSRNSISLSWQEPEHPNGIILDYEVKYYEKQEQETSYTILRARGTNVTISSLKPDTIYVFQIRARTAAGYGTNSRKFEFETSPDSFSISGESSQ
OBSERVED PROPERTY: IC50 (µM)
Quick note: give the figure in µM, leave out the unit.

Observe how each entry below is paired with its result.
In [3]: df
Out[3]:
                                   compound  observed_property  value_observed
0  O=S1(=O)CCN(Cc2ccc(O)c3ncccc23)CC1 [Compound 15]               IC50             100
1  O=[N+]([O-])c1cc(CN2CCOCC2)c2cccnc2c1O [Compound 10]               IC50             100

Input line: # lookup: IC50 of Oc1c(Cl)cc(CN2CCOCC2)c2cccnc12 [Compound 4]
Output line: 12.9

Input line: # lookup: IC50 of Oc1ccc(CN2CCOCC2)c2cccnc12 [Compound 1, 5-(morpholinomethyl)quinolin-8-ol]
Output line: 100

Input line: # lookup: IC50 of Oc1c(Br)cc(CN2CCOCC2)c2cccnc12 [Compound 6]
Output line: 100

Input line: # lookup: IC50 of Oc1ccc(CN2CCN(Cc3ccc(C(F)(F)F)cc3)CC2)c2cccnc12 [Compound 48]
Output line: 100

----------
Below, each entry is listed alongside its reported IC50.
Biological target: EphrinB2-EphB2 (Homo sapiens, UniProt P29323)
Construct: soluble human EphB1-His, EphB2-His, and EphB4-His ectodomains; commercially available human EphrinB1-Fc (EB1), EphrinB2-Fc (EB2), and EphrinB3-Fc (EB3) ectodomain proteins; purchased
Sequence (P29323 19-543 limits assumed): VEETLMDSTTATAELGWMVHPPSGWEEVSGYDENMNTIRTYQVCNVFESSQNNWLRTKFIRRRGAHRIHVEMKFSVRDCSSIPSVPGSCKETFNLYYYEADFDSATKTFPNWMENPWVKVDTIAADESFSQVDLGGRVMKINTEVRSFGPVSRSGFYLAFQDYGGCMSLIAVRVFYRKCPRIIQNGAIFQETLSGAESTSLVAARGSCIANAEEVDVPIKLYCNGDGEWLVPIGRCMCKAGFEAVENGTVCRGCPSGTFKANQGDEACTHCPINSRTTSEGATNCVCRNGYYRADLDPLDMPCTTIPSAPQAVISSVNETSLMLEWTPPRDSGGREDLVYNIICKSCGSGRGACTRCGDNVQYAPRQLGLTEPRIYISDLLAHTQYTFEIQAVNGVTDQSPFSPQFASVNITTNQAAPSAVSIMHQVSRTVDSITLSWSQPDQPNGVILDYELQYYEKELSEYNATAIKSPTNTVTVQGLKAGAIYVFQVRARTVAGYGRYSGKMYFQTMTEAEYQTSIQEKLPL
Experiment: Octet tetramerization inhibition, immobilized human EphrinB2 binding to 50 nM soluble human EphB2
Settings: tetramerization inhibitor IC50 (relative), association step; surmountable tetramer

Observe how each entry below is paired with its result.
>>> print(df.to_string())
                              smiles_code                       experimental_target  observed_property  value_observed
0          Oc1c(Br)cc(CN2CCOCC2)c2cccnc12  EphrinB2-EphB2 (Homo sapiens, UniProt P29323)               IC50         ~0.5 µM
1  O=[N+]([O-])c1cc(CN2CCOCC2)c2cccnc2c1O  EphrinB2-EphB2 (Homo sapiens, UniProt P29323)               IC50          > 3 µM

Input line: # lookup: IC50 of O=S1(=O)CCN(Cc2cc(I)c(O)c3ncccc23)CC1
Output line: ~0.8 µM

Input line: # lookup: IC50 of Oc1ccc(CN2CCN(c3ccc(Br)cc3)CC2)c2cccnc12
Output line: 1.2 µM

Input line: # lookup: IC50 of CC(=O)Nc1ccc(N2CCN(Cc3ccc(O)c4ncccc34)CC2)cc1
Output line: > 3 µM

Input line: # lookup: IC50 of O=[N+]([O-])c1cc(CN2CCS(=O)(=O)CC2)c2cccnc2c1O
Output line: > 3 µM

Input line: # lookup: IC50 of O=C(Cc1ccccc1)Nc1ccc(N2CCN(Cc3cc(Br)c(O)c4ncccc34)CC2)cc1
Output line: > 3 µM

Input line: # lookup: IC50 of Nc1ccc(N2CCN(Cc3ccc(O)c4ncccc34)CC2)cc1
Output line: ~2 µM
